- Test system: Hepatitis C virus
- Test: Antiviral activity against HCV genotype 2a assessed as replicon RNA level measured after 3 days by real-time PCR method
- Type: functional, organism-based, Hepacivirus hominis
- Condition Details: 72 h
pEC50: −log10 of the molar value.
Quick list: pEC50 per entry.

- Compound: "COC(=O)N[C@H](C(=O)N1CCC[C@H]1c1ncc(-c2ccc3c(c2)OC(c2ccc(OC)cc2)n2c-3cc3cc(-c4cnc([C@@H]5CCCN5C(=O)[C@@H](NC(=O)OC)C(C)C)[nH]4)ccc32)[nH]1)C(C)C (mixture of isomers)"
  pEC50: 11.40
- Compound: "COC(=O)N[C@H](C(=O)N1CCC[C@H]1c1ncc(-c2ccc3c(c2)OC(c2ccccc2F)n2c-3cc3cc(-c4cnc([C@@H]5CCCN5C(=O)[C@@H](NC(=O)OC)C(C)C)[nH]4)ccc32)[nH]1)C(C)C (some centres undefined)"
  pEC50: 11.52
- Compound: "COC(=O)N[C@H](C(=O)N1CCC[C@H]1c1ncc(-c2ccc3c(c2)OC(c2cc(OC)cc(OC)c2)n2c-3cc3cc(-c4cnc([C@@H]5CCCN5C(=O)[C@@H](NC(=O)OC)C(C)C)[nH]4)ccc32)[nH]1)C(C)C (mixture of isomers)"
  pEC50: 11.70
- Compound: "CCc1cccc(C2Oc3cc(-c4cnc([C@@H]5CCCN5C(=O)[C@@H](NC(=O)OC)C(C)C)[nH]4)ccc3-c3cc4cc(-c5cnc([C@@H]6CCCN6C(=O)[C@@H](NC(=O)OC)C(C)C)[nH]5)ccc4n32)c1 (mixture of isomers)"
  pEC50: 10.70

* * *

Quick list: EC50 per entry.
- Test system: Hepatitis C virus
- Test: Antiviral activity against HCV genotype 2a assessed as replicon RNA level measured after 3 days by real-time PCR method
- Format: functional, organism-based, Hepacivirus hominis
- Condition Details: 72 h
Observable: EC50

- Compound: "COC(=O)N[C@H](C(=O)N1CCC[C@H]1c1ncc(-c2ccc3c(c2)OC(c2ccc(C4CC4)cc2)n2c-3cc3cc(-c4cnc([C@@H]5CCCN5C(=O)[C@@H](NC(=O)OC)C(C)C)[nH]4)ccc32)[nH]1)C(C)C (mixture of isomers)"
  Reported Value: "< 0.2 nM"
- Compound: "COC(=O)N[C@H](C(=O)N1CCC[C@H]1c1ncc(-c2ccc3c(c2)OC(c2ccc(-c4ccccc4)cc2)n2c-3cc3cc(-c4cnc([C@@H]5CCCN5C(=O)[C@@H](NC(=O)OC)C(C)C)[nH]4)ccc32)[nH]1)C(C)C (mixture of isomers)"
  Reported Value: "< 0.2 nM"
- Compound: "COC(=O)N[C@H](C(=O)N1CCC[C@H]1c1ncc(-c2ccc3c(c2)OC(c2ccc(-c4cccc(-c5ccccc5)c4)cc2)n2c-3cc3cc(-c4cnc([C@@H]5CCCN5C(=O)[C@@H](NC(=O)OC)C(C)C)[nH]4)ccc32)[nH]1)C(C)C (mixture of isomers)"
  Reported Value: "< 0.02 nM"
